These data points were gathered from patent US20090281142A1.

measuredTarget: recombinant human liver GK (GST-hGK2) (Homo sapiens)
Construct: cloning of ORF (open reading frame) was carried out by the following procedure based on AK122876.1; made in house; host or cells: E. coli
Sequence (P35557 1-466 isoform P35557-2): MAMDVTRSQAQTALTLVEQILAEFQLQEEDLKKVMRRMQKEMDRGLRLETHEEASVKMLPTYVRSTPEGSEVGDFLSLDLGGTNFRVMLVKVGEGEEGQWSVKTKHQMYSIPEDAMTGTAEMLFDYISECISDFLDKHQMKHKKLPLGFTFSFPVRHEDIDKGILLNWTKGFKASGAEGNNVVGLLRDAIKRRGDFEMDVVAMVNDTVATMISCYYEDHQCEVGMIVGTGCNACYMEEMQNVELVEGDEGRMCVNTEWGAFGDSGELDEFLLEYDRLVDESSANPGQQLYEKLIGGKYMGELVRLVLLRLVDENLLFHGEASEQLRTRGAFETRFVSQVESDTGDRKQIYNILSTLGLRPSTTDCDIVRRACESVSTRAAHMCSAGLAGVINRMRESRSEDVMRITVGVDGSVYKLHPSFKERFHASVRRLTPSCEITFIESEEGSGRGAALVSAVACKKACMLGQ
assayOverview: Measurement of GK activation
Format: biochemical
protocolConditions: 10 min; 10 μM test agent, 5 mM glucose, increase of absorbance (340 nm) in first 10 minutes relative to DMSO control
measuredEndpoint: activation at 10 µM (%)

> print(dat)
                                    compound  valueobserved
 1  O=C(Nc1nc(C(O)CCO)cs1)/C(=C/C1CCCC1)c1ccc(S(=O)(=O)C2CC2)cc1 (centres unmarked)            240
 2  O=C(Nc1nc(C(O)CO)cs1)/C(=C/C1CCCC1)c1ccc(S(=O)(=O)C2CC2)cc1 (centres unmarked)            249
 3  CS(=O)(=O)c1ccc([C@@H](CC2CCCC2)C(=O)Nc2nc(C(O)CO)c(Cl)s2)cc1 (some centres unmarked)            273
 4  O=C(Nc1nc(CC(CO)CO)cs1)/C(=C/C1CCCC1)c1ccc(S(=O)(=O)C2CC2)cc1            244
 5  O=C(Nc1nc(C(=O)CO)cs1)/C(=C/C1CCCC1)c1ccc(S(=O)(=O)C2CC2)cc1            217
 6  CS(=O)(=O)c1ccc([C@@H](CC2CCCC2)C(=O)Nc2nc(C(O)CO)cs2)cc1 (some centres unmarked)            263
 7  O=C(Nc1nc(C(O)CO)cs1)[C@H](CC1CCCC1)c1ccc(S(=O)(=O)C2CC2)cc1 (some centres unmarked)            267
 8  CC(O)(CO)c1csc(NC(=O)/C(=C/C2CCCC2)c2ccc(S(=O)(=O)C3CC3)cc2)n1 (centres unmarked)            241
 9  CC(=O)OCC(O)c1csc(NC(=O)/C(=C/C2CCCC2)c2ccc(S(C)(=O)=O)cc2)n1 (centres unmarked)            283
10  O=C(Nc1nc([C@H](O)CO)cs1)/C(=C/C1CCCC1)c1ccc(S(=O)(=O)C2CC2)cc1            293
11  CC1(C)OCC(c2csc(NC(=O)/C(=C/C3CCCC3)c3ccc(S(C)(=O)=O)c(Cl)c3)n2)O1 (centres unmarked)            294
12  CS(=O)(=O)c1ccc(/C(=C\C2CCCC2)C(=O)Nc2nc(C(O)CO)cs2)cc1 (centres unmarked)            299
13  CC1(C)OCC(c2csc(NC(=O)/C(=C/C3CCCC3)c3ccc(S(C)(=O)=O)cc3)n2)O1 (centres unmarked)            239
14  O=C(Nc1nc(C(O)CO)cs1)/C(=C/C1CCCC1)c1ccc(S(=O)(=O)C2CCC2)cc1 (centres unmarked)            227
15  CC(O)(CO)c1csc(NC(=O)/C(=C/C2CCCC2)c2ccc(S(=O)(=O)C3CCC3)cc2)n1 (centres unmarked)            235
16  O=C(Nc1nc(C(O)CO)cs1)C(CC1CCCC1)c1ccc(S(=O)(=O)C(F)(F)F)cc1 (centres unmarked)            214
17  CC(O)(CO)c1csc(NC(=O)[C@H](CC2CCCC2)c2ccc(S(=O)(=O)C3CC3)cc2)n1 (some centres unmarked)            260
